Task for the reader: assign each of the following compounds its reported Percent Effect.
Target: Aspartate--tRNA(Asp/Asn) ligase (Mycobacterium tuberculosis (strain ATCC 25618 / H37Rv)) (UniProt P9WFW3)
Assay: Assay for Asp RNA synthetase-1 from Mycobacterium tuberculosis
Format: functional
Set-up: scale not given: in the data most compounds retested in dose-response had high values
Conditions: 30 µM
Report the figure in % without appending any unit label.

Request: // Percent Effect lookup, key: Cc1csc(N2CCN(CC(=O)Nc3nncs3)CC2C)n1 (centres undefined)
Result: -3.09

Request: // Percent Effect lookup, key: CC(C)C(=O)N1CCN(C(=O)c2cc(C(C)C)on2)[C@H]2CS(=O)(=O)C[C@H]21
Result: -1.39

Request: // Percent Effect lookup, key: CN(C)C(=O)NCc1cc2n(n1)CCN(C[C@H]1[C@@H]3CNC[C@@H]31)C2
Result: -4.99

Request: // Percent Effect lookup, key: COc1cc(C)nc(N2CCN(C(=O)CCn3cc(C)cn3)CC2)n1
Result: -3.63

Request: // Percent Effect lookup, key: c1cc(OCc2ccc3c(c2)OCO3)ccc1CNC1CC1
Result: -1.47

Request: // Percent Effect lookup, key: COc1cccc(CN2CCOC(Cn3nc(C)cc3C)C2)c1 (centres undefined)
Result: 1.48

Request: // Percent Effect lookup, key: c1cc(C2CCCN2Cc2nnnn2C2CC2)cs1 (centres undefined)
Result: -4.43

Request: // Percent Effect lookup, key: CC(C)Cc1noc(CN2CCN(CCOc3ccc(Cl)cc3)CC2)n1
Result: 0.745

Request: // Percent Effect lookup, key: OCCn1cc(CN2CCN(CCOc3ccccc3F)CC2)cn1
Result: -0.699

Request: // Percent Effect lookup, key: Cc1ccc(-c2nc(CNC3CCc4ncnn4C3)co2)c(C)c1 (centres undefined)
Result: -9.8

Request: // Percent Effect lookup, key: CN(C)C(=O)CS(=O)(=O)Cc1cc(Cl)c2c(c1)OCCCO2
Result: 4.36

Request: // Percent Effect lookup, key: CSc1nccc(N2CCN(C)C3(CCNC(=O)CC3)C2)n1 (centres undefined)
Result: -0.126

Request: // Percent Effect lookup, key: CNc1cc(CNC(=O)c2ccccn2)nc(-c2ccncc2)n1
Result: -1.21

Request: // Percent Effect lookup, key: COc1ccc(CN2C[C@@H](OCc3ccccn3)[C@H]3COC[C@H]32)cc1
Result: 3.47

Request: // Percent Effect lookup, key: CCn1cc(NC(=O)NC2CCCc3c2cnn3CCO)cn1 (centres undefined)
Result: -3.64

Request: // Percent Effect lookup, key: c1cnnc(N2CCCC2CNCc2cnc(N3CCCC3)nc2)c1 (centres undefined)
Result: 0.626

Request: // Percent Effect lookup, key: CCNc1cc2c(nn1)CCN(C(=O)c1ccc3cc[nH]c3c1)C2
Result: 2.23

Request: // Percent Effect lookup, key: CN(Cc1nccn1CC(F)(F)F)C(=O)c1ccc(F)cc1F
Result: 1.98

Request: // Percent Effect lookup, key: Cc1ccc(Oc2ccc(NC(=O)NCC3CCOC3)cn2)cc1C (centres undefined)
Result: 0.322

Request: // Percent Effect lookup, key: Cc1ccccc1CS(=O)(=O)CC(=O)NC1CCCCNC1=O (centres undefined)
Result: -3.58

Request: // Percent Effect lookup, key: Cc1cc(C)c(OCC(=O)NS(=O)(=O)c2c(C)noc2C)c(C)c1
Result: -3.08

Request: // Percent Effect lookup, key: Cc1cc(C(=O)N2CCCCC2C)ccc1NCC(=O)N1CCOCC1 (centres undefined)
Result: -12.3

Request: // Percent Effect lookup, key: Cc1nc(CN2CCc3ncnc(C)c3CC2)cs1
Result: -3.93

Request: // Percent Effect lookup, key: O=C(c1ccc[nH]1)N1CCc2c(COCC3CC3)cncc2C1
Result: -0.626

###

Biological target: Aspartate--tRNA(Asp/Asn) ligase (Mycobacterium tuberculosis (strain ATCC 25618 / H37Rv))
Sequence (whole entry): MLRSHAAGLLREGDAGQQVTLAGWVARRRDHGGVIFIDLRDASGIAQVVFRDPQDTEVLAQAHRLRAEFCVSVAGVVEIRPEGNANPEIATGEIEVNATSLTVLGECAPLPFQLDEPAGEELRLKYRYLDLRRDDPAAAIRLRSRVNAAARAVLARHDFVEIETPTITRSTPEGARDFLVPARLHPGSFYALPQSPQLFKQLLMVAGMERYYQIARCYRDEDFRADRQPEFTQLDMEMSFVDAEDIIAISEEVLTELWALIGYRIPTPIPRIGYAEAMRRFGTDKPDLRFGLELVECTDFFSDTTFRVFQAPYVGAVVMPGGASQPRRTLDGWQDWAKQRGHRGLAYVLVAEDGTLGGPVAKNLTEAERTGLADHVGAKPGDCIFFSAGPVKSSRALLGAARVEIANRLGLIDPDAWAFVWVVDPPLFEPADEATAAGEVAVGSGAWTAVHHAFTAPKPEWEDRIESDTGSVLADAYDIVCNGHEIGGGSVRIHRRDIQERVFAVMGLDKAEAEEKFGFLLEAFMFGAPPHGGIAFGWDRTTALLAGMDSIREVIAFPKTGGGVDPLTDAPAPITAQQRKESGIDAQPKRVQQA
Assay: Assay for Asp RNA synthetase-1 from Mycobacterium tuberculosis
Type: functional
Parameters: scale not given: in the data most compounds retested in dose-response had high values
Conditions: 30 µM
measured metric: Percent Effect (%)
Report the figure in % without appending any unit label.

Request: // Percent Effect lookup, key: CCOCCn1c(=O)[nH]c2cc(C(=O)N(C)CCc3cn[nH]c3)ccc21
Result: 0.279

Request: // Percent Effect lookup, key: O=S(=O)(CCCN1CCCC1Cn1cncn1)c1ccccc1 (centres undefined)
Result: -1.76

Request: // Percent Effect lookup, key: O=C(NC1(c2nnn(Cc3ccncc3)n2)CCCC1)c1ccccc1
Result: -0.678

Request: // Percent Effect lookup, key: CN1CCN(CCCNC(=O)c2cc(Cl)c3c(c2)OCO3)CC1
Result: -5.91

Request: // Percent Effect lookup, key: O=C(NCc1cc[nH]n1)NCC(c1ccc(F)cc1)N1CCOCC1 (centres undefined)
Result: -0.433

Request: // Percent Effect lookup, key: Cc1cc(N2CCN(CC(=O)N(C)C)CC2)nc(-c2ccncc2)n1
Result: -3.92

Request: // Percent Effect lookup, key: Cc1cccnc1NC(=O)C(C)Cn1nc(C(F)(F)F)cc1C (centres undefined)
Result: -2.9

Request: // Percent Effect lookup, key: CC(Cn1cccn1)NC(=O)NCc1cccs1 (centres undefined)
Result: -7.69

Request: // Percent Effect lookup, key: CN1[C@H](Cn2cccn2)C[C@@H]2CN(C(=O)Cc3cccs3)CC[C@@H]21
Result: 3.12

Request: // Percent Effect lookup, key: CCC(=O)N1CC[C@@H](c2ccc3ccccc3c2)[C@H](O)C1
Result: 2.26

Request: // Percent Effect lookup, key: Cc1ccc(CN2CCc3ncnc(C4CCOC4)c3CC2)s1 (centres undefined)
Result: 1.05

Request: // Percent Effect lookup, key: Cc1nc(C)n(CC2CN(c3ncccn3)Cc3nccn3C2)n1 (centres undefined)
Result: -0.127

Request: // Percent Effect lookup, key: O=C(NC1CCC1)[C@@H]1CCO[C@@H]2CCN(CCc3ccccc3)C[C@H]21
Result: -2.94

Request: // Percent Effect lookup, key: CCC(CC)c1cc(CNC(=O)N2CCOC(C)C2)on1 (centres undefined)
Result: -0.437

Request: // Percent Effect lookup, key: CC(C)Oc1ncccc1CNC(=O)c1cc[nH]n1
Result: -1.4

Request: // Percent Effect lookup, key: Cc1nc(CNC(=O)NCC(O)c2ccc(F)cc2F)cs1 (centres undefined)
Result: -6.13

Request: // Percent Effect lookup, key: Cc1cc(CNC(=O)C2CCCCN2C(=O)OC(C)(C)C)no1 (centres undefined)
Result: 0.607

Request: // Percent Effect lookup, key: CN(Cc1cn2c(n1)CN(C1CCOC1)CC2)Cc1ccco1 (centres undefined)
Result: 4.4

Request: // Percent Effect lookup, key: Cc1cnn(CC2CCCCN2CCn2cncn2)c1 (centres undefined)
Result: -2.34

Request: // Percent Effect lookup, key: CCN(CC1CCCO1)C(=O)Nc1ccc(F)cc1OC (centres undefined)
Result: -2.28

Request: // Percent Effect lookup, key: N#Cc1c(C2CC2)cc(-c2ccc(O)cc2)nc1N
Result: -1.42

Request: // Percent Effect lookup, key: O=C(CCSc1ccc(F)cc1)NS(=O)(=O)c1ccc2c(c1)OCCO2
Result: -0.411

Request: // Percent Effect lookup, key: CN(Cc1ccccc1)CC1(O)CCCN(CC(C)(C)C)C1=O (centres undefined)
Result: -7.46

Request: // Percent Effect lookup, key: CNC(=O)[C@@]12CCO[C@@H]1CCN(S(=O)(=O)c1cccnc1)C2
Result: 0.229
